Where these numbers come from: patent US5098613A

# target: leukotriene B4 specific receptor on the membrane of human neutrophils (Homo sapiens)
# Construct: incubating neutrophils (1×10^7 cells) with 0.1-0.2 nM ^3 H-LTB4; endogenous in cells; host or cells: human peripheral blood neutrophils (buffy coats of two blood donors)
# method: Inhibition of Binding of ^3 H-LTB4 to Peripheral Human Neutrophils
# settings: drug concentration 10^-5 M; 4° C., 10 minutes; read-out: LTB4 Binding Inhibition
parameter: inhibition at 10 µM (%)

compound: CCCc1cc(C(C)=O)c(Cl)cc1OCCCCC#N
result: 35
//
compound: CCCCCCc1cc(C(C)=O)c(O)cc1OCCCCC#N
result: 51
//
compound: C=CCc1cc(C(C)=O)c(O)cc1OCCCC [Example 40, 4-Butoxy-2-hydroxy-5-allylacetophenone]
result: 31

I = CCc1cc(C(C)=O)c(O)cc1OCc1cccc(C(F)(F)F)c1
II = CC(=O)c1cc(C=O)c(OCCCCC#N)cc1O
### Prompt Recorded inhibition at 10 µM values differ for I and II ; which one is higher? Answer with the label corresponding to your selection.
### Response I

###

# target: leukotriene B4 specific receptor on the membrane of human neutrophils (Homo sapiens, UniProt Q15722)
# Construct: incubating neutrophils (1×10^7 cells) with 0.1-0.2 nM ^3 H-LTB4; endogenous in cells; host or cells: human peripheral blood neutrophils (buffy coats of two blood donors)
# Sequence (Q15722 whole entry): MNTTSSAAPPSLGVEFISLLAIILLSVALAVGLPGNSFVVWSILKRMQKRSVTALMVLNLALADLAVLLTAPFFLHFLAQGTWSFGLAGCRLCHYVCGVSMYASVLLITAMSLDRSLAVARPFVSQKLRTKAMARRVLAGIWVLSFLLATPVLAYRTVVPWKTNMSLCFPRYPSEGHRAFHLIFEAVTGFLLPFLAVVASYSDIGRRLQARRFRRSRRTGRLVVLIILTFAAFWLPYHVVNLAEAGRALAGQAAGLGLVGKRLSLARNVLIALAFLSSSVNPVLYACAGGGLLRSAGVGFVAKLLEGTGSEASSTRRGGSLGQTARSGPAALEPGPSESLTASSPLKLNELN
# method: Inhibition of Binding of ^3 H-LTB4 to Peripheral Human Neutrophils
# settings: drug concentration 10^-6 M; 4° C., 10 minutes
Counter-ions that a name gives are not always drawn.
parameter: inhibition at 1 µM (%)

compound: CCc1cc(CC)c(OCCCCCC(C)(C)c2nnn[nH]2)cc1O
parameter: inhibition at 1 µM
result: 103
--
compound: CCc1cc(C(C)=O)c(O)cc1OCCCCCCC(=O)Nc1nnn[nH]1
parameter: inhibition at 1 µM
result: 85
--
compound: CCc1cc(C(C)=O)c(O)cc1OCCCCc1nnnn1CC(=O)O
parameter: inhibition at 1 µM
result: 20
--
compound: C=CCc1cc(C(C)=O)c(O)cc1OCCCCc1nnn(C)n1
parameter: inhibition at 1 µM
result: 55
--
compound: C=CCc1cc(C(C)=O)c(O)cc1OCc1ccccc1C#N
parameter: inhibition at 1 µM
result: 15

I = CCc1cc(C(C)=O)c(O)cc1OCCCC(C)(C)C#N
II = C=CCc1cc(C(C)=O)c(O)cc1OCc1ccc(CC#N)cc1
### Prompt Kindly identify the item with the lower inhibition at 1 µM figure among these two: I and II The response must carry the label of the picked entry.
### Response II
(II: 17%, I: 48%)

a = CCc1cc(C(C)=O)c(O)cc1OCc1cccc(C(F)(F)F)c1
b = CCCc1cc(C(C)=O)c(O)cc1OCCCCN [Example 74, hydrochloride]
### Prompt Between item a and item b , which reported inhibition at 1 µM is smaller? To answer, give the label that identifies your chosen option.
### Response b
(b: 0%, a: 22%)

###

# target: leukotriene B4 specific receptor on the membrane of human neutrophils (Homo sapiens)
# Construct: incubating neutrophils (1×10^7 cells) with 0.1-0.2 nM ^3 H-LTB4; endogenous in cells; host or cells: human peripheral blood neutrophils (buffy coats of two blood donors)
# method: Inhibition of Binding of ^3 H-LTB4 to Peripheral Human Neutrophils
# settings: drug concentration 10^-5 M; 4° C., 10 minutes; read-out: LTB4 Binding Inhibition
parameter: inhibition at 10 µM (%)

a = CCc1cc(C(C)=O)c(O)cc1OCCCCCn1cncn1 [Example 146]
b = CCc1cc(C(C)=O)c(O)cc1OCc1ccc(C(=O)O)c(O)c1 [Example 148]
c = CCc1cc(C(=O)CCCC(=O)O)c(O)cc1OCCCCC#N [Example 88]
### Prompt Put the items above in order of decreasing inhibition at 10 µM. Form entry: ranked labels (order as requested).
### Response a, b, c

###

# target: leukotriene B4 specific receptor on the membrane of human neutrophils (Homo sapiens)
# Construct: incubating neutrophils (1×10^7 cells) with 0.1-0.2 nM ^3 H-LTB4; endogenous in cells; host or cells: human peripheral blood neutrophils (buffy coats of two blood donors)
# method: Inhibition of Binding of ^3 H-LTB4 to Peripheral Human Neutrophils
# settings: drug concentration 10^-6 M; 4° C., 10 minutes
parameter: inhibition at 1 µM (%)

chem.smiles: CCc1cc(C(C)=O)c(O)cc1OCCCC(C)(C)C(N)=O
target: leukotriene B4 specific receptor on the membrane of human neutrophils (Homo sapiens)
result: 55
--
chem.smiles: CCOC(=O)Cn1nnc(CCCCOc2cc(O)c(C(C)=O)cc2CC)n1
target: leukotriene B4 specific receptor on the membrane of human neutrophils (Homo sapiens)
result: 57
--
chem.smiles: C=CCc1cc(C(C)=O)c(O)cc1OCCCCO
target: leukotriene B4 specific receptor on the membrane of human neutrophils (Homo sapiens)
result: 9
--
chem.smiles: CCCc1cc(C(C)=O)c(O)cc1OCCCCNC(C)=O
target: leukotriene B4 specific receptor on the membrane of human neutrophils (Homo sapiens)
result: 23
--
chem.smiles: CCc1cc(C(=O)c2ccccc2C(=O)O)c(O)cc1OCCCCC#N
target: leukotriene B4 specific receptor on the membrane of human neutrophils (Homo sapiens)
result: 15

P = CCc1cc(C(=O)CCCC(=O)O)c(O)cc1OCCCCC#N
Q = C=CCc1cc(C(C)=O)c(O)cc1OCCCCCCCC#N
### Prompt Name the one with the greater inhibition at 1 µM value, either P or Q as given. API: response body contains the label of the selected item.
### Response Q

1 = C=CCc1cc(C(C)=O)c(O)cc1OCCCC#N
2 = CCc1cc(C(C)=O)c(O)cc1OCCCCc1nnn(C)n1
3 = CCCCCc1cc(C(C)=O)c(O)cc1OCCCCC#N
### Prompt Please list the entries, largest inhibition at 1 µM first. Answer format: list of labels, ordered as asked.
### Response 2, 3, 1

a = C=CCc1cc(C(=O)CCCCCCCCC)c(O)cc1OCCCCC#N
b = CCc1cc(C(C)=O)c(O)cc1OCCCCCC(C)(C)C(=O)N(C)O
### Prompt Please state the entry with greater inhibition at 1 µM among a and b . API: response body contains the label of the selected item.
### Response b
(b: 65%, a: 6%)

###

# target: leukotriene B4 specific receptor on the membrane of human neutrophils (Homo sapiens, UniProt Q15722)
# Construct: incubating neutrophils (1×10^7 cells) with 0.1-0.2 nM ^3 H-LTB4; endogenous in cells; host or cells: human peripheral blood neutrophils (buffy coats of two blood donors)
# method: Inhibition of Binding of ^3 H-LTB4 to Peripheral Human Neutrophils
# settings: drug concentration 10^-6 M; 4° C., 10 minutes
Where a name gives a salt, the structure may show the parent alone.
parameter: inhibition at 1 µM (%)

Some compounds with known inhibition at 1 µM results, for comparison:
compound: C=CCc1cc(C(C)=O)c(O)cc1OCCCCN(C)C [Example 76, hydrochloride]
inhibition at 1 µM [%]: 0

compound: CCCc1cc(C(C)=O)c(O)cc1OCCCc1ccccc1 [Example 53]
inhibition at 1 µM [%]: 13

compound: CCCc1cc(C(C)=O)c(Cl)cc1OCCCCC#N [Example 15]
inhibition at 1 µM [%]: 13

compound: CCc1cc(C(C)=O)c(O)cc1OCCCCc1nn[nH]n1 [Example 110]
inhibition at 1 µM [%]: 19

A = CCCc1cc(C(C)=O)c(O)cc1OCCCCC(=O)O [Example 132]
B = C=CCc1cc(C(C)=O)c(O)cc1OCCCCCC(=O)OC [Example 94]
C = C=CCc1cc(C(=O)CCCC(=O)O)c(O)cc1OCCCCC#N [Example 106]
D = C=CCc1cc(C(=O)c2ccccc2)c(O)cc1OCCCCC#N [Example 104]
E = CCc1cc(C(C)=NO)c(O)cc1OCCCCCC(C)(C)C(=O)O [Example 152]
### Prompt Reorder the items by inhibition at 1 µM, least to greatest. Write the labels, ordered according to the request.
### Response A, C, D, E, B
(A: 0%, C: 1%, D: 5%, E: 41%, B: 64%)

###

# Tested on: IL-1 induced T-cell Proliferation
# method: Anti IL-1 Activity (Thymocyte Assay): suppression of IL-1 induced T-cell proliferation
# Format: cell-based, C3H/HeJ male mice
# settings: 10 mcg/ml, mouse thymocytes, 48 hours, read-out: Percent T-cell suppression
# Experimental: Thymus from 3-4 week old C3H/HeJ male mice and were passed through a #100 mesh screen to make a single cell suspension. […] After decanting the supernatant, the cells were resuspended and counted with a hemocytometer. […] Each compound to be tested was dissolved in 30% DMSO/70% PBS to make a stock solution of 1 mg/ml. […] The filter discs were placed in mini-vials, scintillation fluid (Tol-Pop) was added, and the vials counted. […]
compounds and their reported inhibition at 10 µg/mL
Give the quantity in %, number only.

Below: 4 compounds and their reported inhibition at 10 µg/mL.
chem.smiles: CCc1cc(C(=O)c2cccc(C(=O)O)c2)c(O)cc1OCCCCC#N
inhibition at 10 µg/mL / %: 38
//
chem.smiles: CCc1cc(C(C)=O)c(O)cc1OCCCCCCC(=O)N(C)C
inhibition at 10 µg/mL / %: 85
//
chem.smiles: C=CCc1cc(C(=O)CCCCCCCCC)c(O)cc1OCCCCC#N
inhibition at 10 µg/mL / %: 26
//
chem.smiles: CCCCc1cc(C(C)=O)c(O)cc1OCCCCC#N
inhibition at 10 µg/mL / %: 91

Let us move to another entry and its inhibition at 10 µg/mL.
### Prompt GET /values?readout=inhibition at 10 µg/mL&item= CCc1cc(C(C)=O)c(O)cc1OCCCCCC(C)(C)C#N
### Response 99
